Note to self: these compounds have Ki reported for mushroom tyrosinase (Agaricus bisporus, UniProt C7FF04) in various publications.
measure: Ki (µM)

Example entries and their recorded answers appear below.
COc1cc(C(=O)OCCCCN=C(N)N)cc(OC)c1OC; 1.6
O=C1/C(=C/c2ccc(O)c(O)c2)SC(=S)N1c1ccccc1; 3.18

[P] O=C1/C(=C/c2ccc(O)cc2)SC(=S)N1c1ccccc1
[Q] O=C1/C(=C/c2ccc(O)cc2O)SC(=S)N1c1ccccc1
Returns: the argument ( P or Q ) having the larger Ki. Which one? Tell me its label. P
(P: 4.67 µM, Q: 0.708 µM)

[1] CC(=O)c1ccc(NC(=O)COC(=O)/C=C/c2ccc(Cl)cc2)cc1
[2] COc1ccc(/C=C2\SC(=S)N(c3ccccc3)C2=O)cc1O
Returns: the argument ( 1 or 2 ) having the larger Ki. Which one? Tell me its label. 1
